- Tested on: T-47D breast
- Assay: NCI-60 one-dose screen, 48 h (100 = growth as untreated, 0 = no growth, -100 = all killed)
- Cond: 10 µM unless noted
About 83,000 compounds went through this panel and 20% of them were active in at least one assay; those are over-represented in the sample as a whole.
Classification field: class 1 = growth at or over 30%; class 0 = growth under 30%.

# example entries with known answers
Cc1ccc2nc3ccccc3c(NCc3ccc(Cl)cc3)c2c1; class 1
O=S(=O)(Nc1ccc(F)cc1)c1ccc(-c2cnc(C3CC3)o2)cc1; class 1
O=C(CN1C(=O)S/C(=C\C(Cl)=C\c2ccccc2)C1=O)NCCCn1ccnc1; class 0

Exercise: Check if growth >= 30% (inclusive). Item: N=c1ccccn1CCO
Key: class 1

Exercise: Is growth at least 30%? Consider CCN(c1cc(-c2ccc(CN3CCC(/C=C/S(=O)(=O)c4ccccc4)CC3)cc2)cc(C(=O)NCc2c(C)cc(C)[nH]c2=O)c1C)C1CCOCC1
Key: class 1

Exercise: Identify whether the reported growth of the following compound is 30% or greater: CCc1c2c(nc3ccc(OCc4ccc(B5OC(C)(C)C(C)(C)O5)cc4)cc13)-c1cc3c(c(=O)n1C2)COC(=O)[C@]3(O)CC
Key: class 0

Exercise: Is growth for Clc1nccc2c(-c3csc(-c4c[nH]c5ccc(Br)cc45)n3)c[nH]c12 at or above 30%?
Key: class 0

Exercise: Decide: is the reported value of growth for CC(=O)c1nn(-c2ccccc2)/c(=N/N=Cc2cn(-c3ccccc3)nc2-c2cc3ccccc3oc2=O)s1 equal to or greater than 30%?
Key: class 1

Exercise: Does the compound Cc1c(C(C)(C)O)cn2ncnc(Oc3ccc(NC(=O)Nc4ccc(Cl)c(C(F)(F)F)c4)cc3)c12 have recorded growth that is 30% or more?
Key: class 0
